- procedure_summary: Biodistribution of 14C-CA4P following sub-Tenon's injection
- Type: in vivo, New Zealand rabbits
- run_parameters: aqueous humor; 100 mg/ml sub-Tenon's
readout: Cmax (µM)
A number alone suffices; assume µM.

Measured Cmax, COc1ccc(/C=C\c2cc(OC)c(OC)c(OC)c2)cc1OP(=O)([O-])[O-].[Na+].[Na+] [CA4P, combretastatin A4 disodium phosphate] : 5.92
